These measurements were taken from patent US12441703B2.

# assay-target: human NaV 1.8 (Homo sapiens)
# Sequence (Q9Y5Y9 whole entry, looked up): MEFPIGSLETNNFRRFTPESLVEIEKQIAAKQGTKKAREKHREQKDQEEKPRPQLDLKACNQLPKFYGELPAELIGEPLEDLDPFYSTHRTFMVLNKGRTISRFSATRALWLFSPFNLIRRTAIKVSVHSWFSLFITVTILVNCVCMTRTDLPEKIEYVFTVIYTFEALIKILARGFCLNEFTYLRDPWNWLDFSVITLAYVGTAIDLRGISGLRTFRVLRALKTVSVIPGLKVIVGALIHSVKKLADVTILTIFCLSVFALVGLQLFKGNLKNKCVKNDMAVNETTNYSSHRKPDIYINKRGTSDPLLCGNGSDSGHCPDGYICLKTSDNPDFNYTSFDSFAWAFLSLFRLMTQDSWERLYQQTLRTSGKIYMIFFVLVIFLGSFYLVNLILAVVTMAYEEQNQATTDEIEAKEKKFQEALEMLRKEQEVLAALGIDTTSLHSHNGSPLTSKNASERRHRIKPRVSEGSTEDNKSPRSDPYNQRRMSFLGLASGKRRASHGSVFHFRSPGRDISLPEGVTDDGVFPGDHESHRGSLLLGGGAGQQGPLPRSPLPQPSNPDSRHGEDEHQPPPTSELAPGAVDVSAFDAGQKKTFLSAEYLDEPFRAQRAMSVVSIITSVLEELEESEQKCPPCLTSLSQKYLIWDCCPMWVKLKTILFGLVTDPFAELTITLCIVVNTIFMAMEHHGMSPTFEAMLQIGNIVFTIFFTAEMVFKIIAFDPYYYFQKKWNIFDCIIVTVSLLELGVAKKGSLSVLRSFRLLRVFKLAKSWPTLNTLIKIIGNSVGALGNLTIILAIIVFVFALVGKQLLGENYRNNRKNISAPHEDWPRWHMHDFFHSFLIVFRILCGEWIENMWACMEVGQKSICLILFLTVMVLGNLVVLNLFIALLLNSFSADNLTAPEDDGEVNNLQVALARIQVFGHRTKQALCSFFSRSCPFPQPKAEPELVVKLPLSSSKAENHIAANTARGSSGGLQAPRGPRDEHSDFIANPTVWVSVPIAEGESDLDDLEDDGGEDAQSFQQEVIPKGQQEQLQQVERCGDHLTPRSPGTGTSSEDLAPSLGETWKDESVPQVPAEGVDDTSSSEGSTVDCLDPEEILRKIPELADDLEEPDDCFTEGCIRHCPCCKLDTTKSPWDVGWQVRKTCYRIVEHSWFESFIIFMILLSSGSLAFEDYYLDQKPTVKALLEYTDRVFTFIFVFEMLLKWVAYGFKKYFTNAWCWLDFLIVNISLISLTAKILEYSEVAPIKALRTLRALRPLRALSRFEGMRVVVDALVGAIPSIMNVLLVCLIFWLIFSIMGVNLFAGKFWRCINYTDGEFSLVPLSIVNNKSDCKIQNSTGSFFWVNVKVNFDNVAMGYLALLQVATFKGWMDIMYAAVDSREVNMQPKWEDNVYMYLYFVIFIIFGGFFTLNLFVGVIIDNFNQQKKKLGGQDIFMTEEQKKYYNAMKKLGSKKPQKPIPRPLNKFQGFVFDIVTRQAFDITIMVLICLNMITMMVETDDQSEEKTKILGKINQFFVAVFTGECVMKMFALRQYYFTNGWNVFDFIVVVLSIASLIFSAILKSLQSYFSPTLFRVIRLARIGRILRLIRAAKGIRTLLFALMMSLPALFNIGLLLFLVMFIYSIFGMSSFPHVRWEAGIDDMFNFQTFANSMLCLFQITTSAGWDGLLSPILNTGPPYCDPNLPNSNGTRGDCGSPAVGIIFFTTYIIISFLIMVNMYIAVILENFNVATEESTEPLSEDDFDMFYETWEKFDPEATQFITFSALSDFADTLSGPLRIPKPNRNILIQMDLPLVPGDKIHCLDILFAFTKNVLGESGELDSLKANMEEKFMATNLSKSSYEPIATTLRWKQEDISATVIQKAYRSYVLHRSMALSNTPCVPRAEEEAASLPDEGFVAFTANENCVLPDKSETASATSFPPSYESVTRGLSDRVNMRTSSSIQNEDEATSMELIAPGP
# assay-remarks: E-VIPR assay for detecting and measuring NaV inhibition properties
# Type: cell-based
# conditions-used: E-VIPR assay conducted in the presence of human serum; HEK cells expressing truncated human NaV 1.8; read-out: IC50
pIC50: −log10 of the molar value.
attribute-measured: pIC50

Illustrative cases are given below, each with its answer.
CCc1c(C(F)(F)F)ccc(Oc2ccc(OC(F)(F)F)cc2OC)c1C(=O)Nc1ccnc(C(N)=O)c1 [Compound 183] :: 7.85
COc1c(C(F)(F)F)ccc(Oc2ccc(OC3CCCCC3)cc2)c1C(=O)Nc1ccnc(C(N)=O)c1 [Compound 60] :: 6.28
COc1cc(Oc2ccc(F)cc2Cl)c(C(=O)Nc2ccc(C(N)=O)nc2)c(F)c1C(F)(F)F [Compound 367] :: 6.48
COc1cc(F)ccc1Oc1ccc(C(F)(F)F)c(F)c1C(=O)Nc1ccc(C(N)=O)nc1 [Compound 104] :: 6.42

I = COc1cc(OC(F)(F)F)ccc1Oc1ccc(C(F)F)c(C)c1C(=O)Nc1ccnc(C(N)=O)c1 [Compound 244]
II = COc1c(Oc2ccc(C(F)(F)F)c(C)c2C(=O)Nc2cc(C(N)=O)ncc2C)ccc(F)c1F [Compound 180]
Identify the entry with the smaller pIC50: I or II . Write down the label attached to your selection. II
(II: 6.29, I: 7.77)
